System: OVCAR-3 ovarian
Experiment: NCI-60 one-dose screen, 48 h (100 = growth as untreated, 0 = no growth, -100 = all killed)
Settings: 10 µM unless noted
About 83,000 compounds went through this panel and 20% of them were active in at least one assay; those are over-represented in the sample as a whole.
Threshold check on growth: at or above 70% gives met, strictly below gives not met.

Examples with answers:
[in] Please check the record Cc1ccc2oc(=O)cc(-c3sc(N4CCCCC4)nc3-c3ccccc3)c2c1 and state if its growth is at or above 70%.
[out] met

[in] Ok, now CN(C)c1ccc(N)c2ccccc12
[out] not met

[in] And then C=C(C)[C@@H]1CC[C@]2(C(=O)OC)CC[C@]3(C)[C@H](CC[C@@H]4[C@@](C)(CC/C(N)=N/O)[C@H](C(=C)C)CC[C@]43C)[C@@H]12 , what is it?
[out] met

Further cases:
[in] Please tell me: is the molecule C[C@H]1OC(=O)/C=C/[C@@H](O)[C@@H](O)CCCCCCCC[C@@H]1O at or over 70% in terms of growth?
[out] met

[in] Same read-out for CC(C)=CCC[C@](C)(O)[C@H]1CC[C@]2(C)[C@@H]1CC[C@@H]1[C@@]3(C)C/C(=C/c4ccc(Br)cc4)C(=O)C(C)(C)[C@@H]3CC[C@]12C ?
[out] met

[in] Note, next up: Cc1ccc(N(CC(=O)Nc2ccc(S(=O)(=O)NC3CCN(C)CC3)cc2)S(=O)(=O)c2ccc(Cl)cc2)cc1
[out] met

[in] Also Cc1cc(Nc2ccc(F)cc2)nc(N2CCN(c3ccnc4cc(Cl)ccc34)CC2)n1 ?
[out] not met

[in] Next molecule: COc1ccccc1-n1cnc(N)c1C(=O)c1cc(OC)c(OC)c(OC)c1
[out] not met

====

Test system: SNB-19 CNS
Assay: NCI-60 one-dose screen, 48 h
Details: 10 µM unless noted
About 83,000 compounds went through this panel and 20% of them were active in at least one assay; those are over-represented in the sample as a whole. Calls of active or inactive are those of the source. How the source made its calls: active means growth percent below 10; inactive means the rest.
Valid outcomes are listed here; reply with one: 1 (yes) for active, 0 (no) for inactive

[in] Called result for Cc1ccc(Sc2sc(-c3ccccc3)nc2[P+](c2ccccc2)(c2ccccc2)c2ccccc2)cc1
[out] 0 (no)

Continuing:
[in] How was CC(C)(C)c1ccc(OCCCCCCCN2CCNCC2)cc1 classified in this test?
[out] 0 (no)

[in] Okay, and N#CC1C(=N)Cc2ccccc2-c2ccccc21 (configuration not stated) ?
[out] 0 (no)

[in] Note, next up: COc1ccc(-c2nc3ncccn3c2-c2nc3ccc(Br)cc3[nH]2)cc1
[out] 0 (no)

[in] Item: N#CCCCCCn1c2ccccc2c2c3[nH]c(=O)[nH]c(=O)c3c3c4ccccc4n(CCCCCC#N)c3c21
[out] 0 (no)

[in] Now this one: Nc1c(C(=O)Nc2cccc3ccccc23)sc2nc3c(cc12)CCCC3
[out] 0 (no)

====

System: T-47D breast
Experiment: NCI-60 one-dose screen, 48 h (100 = growth as untreated, 0 = no growth, -100 = all killed)
Conditions: 10 µM unless noted
Procedure: Growth inhibition of the T-47D human tumor cell line is measured as a screen for anti-cancer activity. Cells are grown in 96 well plates and exposed to the test compound for 48 hours. Compounds are tested at a single concentration, which is 10^-5 M for most compounds. The reported endpoint is percent growth (GI% or GIPRCNT), where numbers from 0 - 100% represent growth inhibition, and numbers from -100% - 0 represent cell death. For example, a value of 40 represents 60% growth inhibition. […]
The panel holds about 83,000 compounds, 20% with a hit somewhere; the sample as a whole holds those more often.
Categories are assigned from the measured growth using these intervals: Low = under 40%, Medium = from 40% up to 80%, High = 80% and over

[in] Record Cc1ccc2oc(=O)cc(-c3sc(N4CCCCC4)nc3-c3ccccc3)c2c1 — which class?
[out] Medium

[in] Then COC(=O)[C@]12CC[C@@H](C)[C@H](C)[C@@H]1C1=CC[C@@H]3[C@@]4(C)C=C(O)C(=O)C(C)=C4CC[C@@]3(C)[C@]1(C)CC2 ?
[out] Low

[in] Another: Cc1ccc(/C=C(\C#N)c2cc3ccccc3n2C)cc1
[out] Medium

---
[in] Looking at CCCCC/C(=C\c1ccccc1)C1OC(C)C(C)O1 (stereo unspecified) , which class would you pick?
[out] High

[in] What do you get for Cc1cc(N2CCCCC2)nc(N(CCCNc2ccnc3cc(Cl)ccc23)Cc2ccco2)n1 ?
[out] Low

[in] Note, next up: CC(=O)n1c(/C(C#N)=C/c2ccc(N(C)C)cc2)cc2ccccc21
[out] Low

[in] Next record, please: COc1ccccc1-n1cnc(N)c1C(=O)c1cc(OC)c(OC)c(OC)c1
[out] Medium

[in] Same for Cc1cc(Cl)c2c(N(C)C)cccc2n1
[out] High

[in] What about this compound? Cn1nc(-c2ccccc2)c2c(-c3ccccc3)onc2c1=O
[out] Low

[in] Param item: Nc1c(Cl)cc(N=Nc2ccccc2)cc1Cl
[out] Medium
